The reported numbers originate from ChEMBL document CHEMBL6103661.

# Assayed system: 3',5'-cyclic-AMP phosphodiesterase 7B (Homo sapiens)
# Sequence (Q9NP56 whole entry): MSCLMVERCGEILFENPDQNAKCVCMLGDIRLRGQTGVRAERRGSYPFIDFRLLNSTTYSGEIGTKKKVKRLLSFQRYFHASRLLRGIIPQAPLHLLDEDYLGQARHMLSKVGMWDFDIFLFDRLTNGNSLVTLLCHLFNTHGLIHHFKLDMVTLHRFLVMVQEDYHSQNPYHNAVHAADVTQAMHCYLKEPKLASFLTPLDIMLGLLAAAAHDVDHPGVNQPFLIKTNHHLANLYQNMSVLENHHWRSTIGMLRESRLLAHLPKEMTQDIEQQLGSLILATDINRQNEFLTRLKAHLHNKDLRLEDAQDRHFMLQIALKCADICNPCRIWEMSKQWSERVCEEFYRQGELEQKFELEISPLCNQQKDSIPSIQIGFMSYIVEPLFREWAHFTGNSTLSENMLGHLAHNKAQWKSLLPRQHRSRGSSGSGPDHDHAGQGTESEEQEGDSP
# Method summary: Inhibition of human recombinant PDE7B expressed in Sf9 insect cells using FAM-cAMP as substrate preincubated for 15 mins followed by substrate addition and measured after 30 mins by spectrofluorimetry
Assay endpoint: IC50 (nM)
Please state the figure in nM; there is no need to write the unit.

I am curious: what IC50 value has been reported for `CN(C)C1CCN(C(=O)c2cc3cc(Cl)c4c(c3o2)C2(CCCCC2)NC(=O)N4)CC1` ?
58
